Where do the numbers come from? From PubChem BioAssay (NCI).

tested on: MCF7 breast; test: NCI-60 one-dose screen, 48 h (100 = growth as untreated, 0 = no growth, -100 = all killed); conditions: 10 µM unless noted
This is part of a sample that, as a whole, favours compounds with a hit. Of some 83,000 tested, about 20% had one in any assay.
Measurement label: growth (%)
One number for each entry, in %.

Past entries and their recorded results:
CC1=C([Se]CC(OC(=O)CC[Se]c2ccccc2)C(=O)NC(C)(C)C)C(=O)c2ccccc2C1=O (stereo not given) : -54.7
COCCn1cc(-c2csc(-c3cn(C)c4ccc(Br)cc34)n2)c2cccnc21 : 50.2
COc1cccc(/C=C2\COc3ccc(O)c(O)c3C2=O)c1 : 17.6
O=S(=O)(Nc1ccc(F)cc1F)c1ccc(-c2cnc(C3CC3)o2)cc1 : 20.3
Cc1ccc(C(=O)c2ccc(CC(=O)N/N=C/c3ccccc3O)n2C)cc1 : 81.5
Fc1cnccc1C1CC(c2ccc(N3CCNCC3)cc2)=NN1 (stereo not given) : 73
CS(=O)(=O)Nc1cncc(-c2ccc3ncnc(Nc4cncc(Cl)c4)c3c2)c1 : 55.6
C1CCC([PH+](C2CCCCC2)C2CCCCC2[PH+](C2CCCCC2)C2CCCCC2)CC1.[Au].[CH-]1CCCCC1C1CCCC[N-]1 (stereo not given) : -30.5

Dear colleague, could you please provide growth for the molecules listed below?
1. Nc1c(C(=O)Nc2ccccc2F)sc2nc3c(cc12)CCCC3
2. CCc1ncnc2c1ccn2C(C)c1ccc(OC)c(F)c1 (stereo not given)

Result block:
1: 18; 2: 33.4

Provide the reported growth of each entry below, same order.
1. Cn1cc(-c2csc(-c3c[nH]c4ccc(Br)cc34)n2)c2ccnc(Cl)c21
2. COc1ccc2c(c1)c(-c1nc(-c3c[nH]c4ccncc34)cs1)cn2C
3. O=C1c2ccc3c4c5ccc(c24)C(=O)N1CCCOCCCCOCCCNCc1ccc(cc1)CNCCCOCCCCOCCCN(C3=O)C5=O

Result block:
1: 46.6; 2: -68.9; 3: -58.3

###

system: MDA-MB-231 breast; experiment: NCI-60 one-dose screen, 48 h (100 = growth as untreated, 0 = no growth, -100 = all killed); settings: 10 µM unless noted
About 83,000 compounds went through this panel and 20% of them were active in at least one assay; those are over-represented in the sample as a whole.
Measurement label: growth (%)
Numbers only, in %.

Sample answers from the record:
Cc1cc(=O)n(C(=O)Nc2ccccc2Cl)c2cc(O)ccc12 : 101
CN(/C(N)=N/N=C/c1c2ccccc2cc2ccccc12)C1CCCCC1 : 59.9
CCCCn1c(=O)[nH]c(N)c([C@@H]2c3c([nH]c(=O)n(CCCC)c3=O)Oc3ccc4ccccc4c32)c1=O : 55.4
COc1cc(/C=C2/C=C(c3ccccc3)N(CCc3ccc(S(N)(=O)=O)cc3)C2=O)cc(OC)c1OC : 96.8
Oc1c(Br)cc(Br)c2ccc(Cn3cc(-c4ccccc4C(F)(F)F)nn3)nc12 : 109
CC(C)c1ccc(C(=O)Nc2nc3ccc(O)c(CN(C)C)c3s2)cc1 : 44.8
Cc1c(O)cc(-c2cnc(Nc3ccccc3)s2)c(O)c1C : 99.2
CSc1nc(N)c(NS(=O)(=O)c2ccc(C(C)=O)cc2)c(=O)[nH]1 : 104

Now consider the entry below.
What the record says about CC(=O)O[C@@H]1C[C@]2(C(C)C)O[C@@]1(C)[C@@H]1CCC(C)=C1[C@@H]2OC(=O)/C=C/c1ccccc1 : growth is 84.1

###

system: UACC-257 melanoma; assay: NCI-60 one-dose screen, 48 h (100 = growth as untreated, 0 = no growth, -100 = all killed); conditions: 10 µM unless noted
Compounds without any hit were thinned out: in the full panel of roughly 83,000, 20% have a hit.
Please provide measured growth for the entries that follow.
Give bare numbers, in %.

A selection of reference data follows.
O=C(CN1C(=O)S/C(=C\C(Cl)=C\c2ccccc2)C1=O)NCCc1ccc(O)cc1 : 60.9
Cc1c2cnccc2c(C)c2c1c1cc(C#N)ccc1n2C : -29
O=C(Nn1c2c(sc1=NC1CC1)C(=O)c1ccccc1C2=O)c1cc2ccc1CCc1ccc(cc1)CC2 : -28.6
CCCCCCCCCCCCCCCCOCCCOP(=O)(O)C1CCCN(O)C1=O (stereo not given) : 18.2
Cc1cc(=O)oc2cc(OCc3nn4c(Nc5nc6ccccc6s5)c(-c5ccccc5)nc4s3)ccc12 : 93.9

Please go through the list and note growth for each compound.
1. O=C(N(c1ccccc1)c1ccccc1)n1cc(I)c2nc(Cl)nc(Cl)c21
2. N#C/C(=C\c1c(-c2ccccc2)[nH]c2ccccc12)C(N)=O

Result block:
53.7
105

// batch mode: one growth value per listed entry
1. O=C1Nc2ccccc2/C1=C/c1cccn1CCCCn1c2ccccc2c(=O)c2ccccc21
2. CC(C)Cn1cnc2c(=O)[nH]c(N)nc21
3. CCC(C)N(CCNc1cc(OC)cc2cccnc12)CC(C)C (stereo not given)

Result block:
1. 105
2. 84.1
3. 99.8

###

So I've got a bunch of molecules here, and I need their growth values.
system: HCT-15 colon; test: NCI-60 one-dose screen, 48 h (100 = growth as untreated, 0 = no growth, -100 = all killed); settings: 10 µM unless noted
About 83,000 compounds went through this panel and 20% of them were active in at least one assay; those are over-represented in the sample as a whole.
Numbers only, in %.

Cc1c(O)cc(-c2cnc(Nc3ccccc3)s2)c(O)c1C : 92.2
Fc1cnccc1C1CC(c2ccc(N3CCNCC3)cc2)=NN1 (stereo not given) : 97.6
CCN(CC)CCn1c2ccc(O)cc2c2sc3cc(O)ccc3c(=O)c21 : 29.1

For every listed record, write down its growth.
1. CCOc1ccccc1Cn1ccnc1CCc1c(Cl)c(O)cc(O)c1C(=O)OC
2. N#Cc1ccc(O)c(C2=NCC(c3ccccc3)O2)c1 (stereo not given)

Result block:
[104, 20.8]

Provide the reported growth of each entry below, same order.
1. OCCn1cc(-c2nc(-c3c[nH]c4ncccc34)cs2)c2ccccc21
2. CCOC(=O)c1cc(C)n(-c2ccc(C(=O)O)cc2)c1C
3. CCCNC(=O)Nc1ccc2cc3ccc(NC(=O)NCCC)cc3nc2c1
4. CCn1cc(C(=O)NNC(=S)Nc2ccc(C)cc2)c(=O)c2ccc(C)nc21
5. O=C(Nc1nc2ccc(C(=O)N3CCN(/C=C/c4ccccc4)CC3)cc2s1)c1ccc(NCCc2ccccc2)c([N+](=O)[O-])c1
6. Cc1ccc2c(Cn3cc(CSc4nc5ccccc5o4)nn3)cc(=O)oc2c1

Result block:
1: 55.9; 2: 24.8; 3: 94.5; 4: 103; 5: 22.4; 6: 107

For each of the molecules below, state growth.
1. CCOc1nc(-c2ccccc2)cc2c(O)c(C(=O)N/N=C/c3ccccc3)[nH]c(=O)c12
2. Nc1ncnc2c1N=C(c1ccc(Br)cc1)CC(c1cccc(Nc3ccnc4cc(C(F)(F)F)ccc34)c1)N2 (stereo not given)
3. COc1ccc(C2=C(Nc3ccc(C(=O)Nc4ccccc4)cc3)C(=O)N(C)C2=O)cc1
4. Cn1cc(C(=O)c2nc(-c3c[nH]c4ccccc34)no2)c2cc(F)ccc21
5. CC(=O)O[C@H]1CC2CCC3C(CC[C@@]4(C)C3C[C@H]([N+]3(C)CCCCC3)[C@@H]4OC(C)=O)[C@@]2(C)C[C@@H]1N1CCCCC1 (stereo not given in full)
6. CCCC/C=C/[C@@H]1C[C@H]1CCO

Result block:
[104, 27.2, 89.1, 33.2, 118, 97.7]

I have 3 molecules here; please give me growth for each one.
1. Fc1cccc(Oc2ccc(Nc3ncnc4ccc(OCCCN5CCOCC5)cc34)cc2Cl)c1
2. COc1cc(C2CC(c3ccc(Nc4nc(Nc5ccc(Cl)cc5)nc(Nc5ccc(Cl)cc5)n4)cc3)=NN2C(C)=O)cc(OC)c1OC (stereo not given)
3. O=C(Nc1cccc2ccccc12)NC1CC1

Result block:
[10.8, 88.9, 112]

###

test system: CCRF-CEM leukemia; experiment: NCI-60 one-dose screen, 48 h (100 = growth as untreated, 0 = no growth, -100 = all killed); conditions: 10 µM unless noted
About 83,000 compounds went through this panel and 20% of them were active in at least one assay; those are over-represented in the sample as a whole.
Respond with class 1 for growth values of 90% and above, class 0 for values below.

N#CC1=C(N)Oc2c(c(=O)[nH]c3ccc(Cl)cc23)C12C(=O)c1ccccc1C2=O : class 1

Query block: Check the entry COC12C=C/C(=C(/C(=O)OCc3ccncc3)C(=O)CCCCCCCCC3(OC)C=C/C(=C(/C(=O)OCc4ccncc4)C(=O)CCCCCCCC1)O3)O2 : does growth equal or exceed 90%?
Result block: class 0

Query block: Is growth at least 90%? Consider O=C(CN1CCOCC1)Nc1nc(-c2cc3ccccc3oc2=O)cs1
Result block: class 1

Query block: Check if growth >= 90% (inclusive). Item: CCSC(SCC)c1ccc(Cl)cc1
Result block: class 1

Query block: Hello, I need to know if CCCCCCCCCc1ccc(OCCOCCOCCOCCOCCOCCOCCOCCOCCO)cc1 has measured growth not below 90%. Thanks!
Result block: class 0

Query block: Check the entry Cc1nc2sc(C(=O)Nc3cccc(Br)c3)c(N)c2cc1C(O)c1ccccc1 (stereo not given) : does growth equal or exceed 90%?
Result block: class 0

Query block: Could you please find out whether COc1cc(-c2nccc3[nH]c(-c4ccc5cc[nH]c5c4)nc23)cc(OC)c1OC has growth that meets 90% or exceeds it?
Result block: class 0

Query block: Identify whether the reported growth of the following compound is 90% or greater: Nc1ncnc2c1N=C(c1ccc(Br)cc1)CC(c1cccc(Nc3ccnc4cc(C(F)(F)F)ccc34)c1)N2 (stereo not given)
Result block: class 0
